meta.source: patent US20090048258A1

Measured On: Human DGAT1 (Homo sapiens)
Construct: my translation of the primer: M-G-DYKDDDD-GDRGSSRRR) (N); made in house; host or cells: Sf9 insect cells (recombinant baculovirus BAC-DGAT1, pFASTBAC1); microsome fraction
Test Details: DGAT inhibitory activity: [14C]-triglyceride synthesis by DGAT1 high expression Sf9 microsome
Assay type: biochemical
Test Conditions: Table 1, 25 μM dioleoylglycerol, 25 μM [14C]-Oleoyl-CoA, 32° C., 15 min, read-out: DGAT inhibitory activity (according to IC50)
pIC50: −log10 of the molar value.
Measured Attribute: pIC50

INSERT INTO results (compound, measured_attribute, result) VALUES
  ('CCCCc1sc(NC(=O)CCC(=O)c2ccc(OCC)c(OCC)c2)cc1-c1ccccc1 [Example 58]', 'pIC50', '6.30 to 7.30'),
  ('CCCc1ccc(C(=O)CCC(=O)Nc2nc(-c3ccccc3)c(Cc3ccccc3)s2)cc1 [Example 26]', 'pIC50', '6.30 to 7.30');

Please report the recorded pIC50 for CCOC(=O)CCc1ccc(NC(=O)CCC(=O)c2ccc(OCC)c(OCC)c2)cc1-c1ccccc1 [Example 9] .
6.30 to 7.30

Please report the recorded pIC50 for CCOc1ccc(C(=O)CCC(=O)Nc2nc(-c3ccccc3)c(Cc3ccccc3)s2)cc1Cl [Example 36] .
≥ 8.00

Please report the recorded pIC50 for COc1ccc(C(=O)CCC(=O)Nc2cc(-c3ccccc3)c(Cc3ccccc3)s2)cc1CCCOC(C)=O [Example 53] .
6.30 to 7.30

Please report the recorded pIC50 for CCOc1ccc(C(=O)CCC(=O)Nc2ccn(Cc3ccccc3)c2-c2ccccc2)cc1OCC [Example 19] .
7.30 to 8.00

---

Measured On: Human DGAT1 (Homo sapiens)
Construct: my translation of the primer: M-G-DYKDDDD-GDRGSSRRR) (N); made in house; host or cells: Sf9 insect cells (recombinant baculovirus BAC-DGAT1, pFASTBAC1); microsome fraction
Sequence (O75907 1-488): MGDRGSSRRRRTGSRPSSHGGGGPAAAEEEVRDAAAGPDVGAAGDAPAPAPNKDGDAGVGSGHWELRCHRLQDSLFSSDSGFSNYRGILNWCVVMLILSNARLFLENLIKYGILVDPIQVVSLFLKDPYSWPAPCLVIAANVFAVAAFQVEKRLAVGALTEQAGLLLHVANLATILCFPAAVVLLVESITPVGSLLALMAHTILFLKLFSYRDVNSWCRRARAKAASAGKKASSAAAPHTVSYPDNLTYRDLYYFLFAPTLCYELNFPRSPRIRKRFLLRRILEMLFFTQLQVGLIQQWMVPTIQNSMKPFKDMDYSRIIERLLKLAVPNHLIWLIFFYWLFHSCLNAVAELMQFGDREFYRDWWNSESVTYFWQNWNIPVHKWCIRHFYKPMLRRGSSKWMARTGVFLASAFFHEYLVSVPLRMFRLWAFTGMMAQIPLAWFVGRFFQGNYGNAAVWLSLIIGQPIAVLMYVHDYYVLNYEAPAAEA
Test Details: DGAT inhibitory activity: [14C]-triglyceride synthesis by DGAT1 high expression Sf9 microsome
Format: biochemical
Test Conditions: Table 2, 25 μM dioleoylglycerol, 25 μM [14C]-Oleoyl-CoA, 32° C., 15 min, read-out: DGAT inhibitory activity (according to IC50)
pIC50: −log10 of the molar value.
Measured Attribute: pIC50

Guide cases for pIC50, answers given:
INSERT INTO assay_data (smiles_input, measured_attribute, result) VALUES
  ('Cc1ccc(C(=O)CCC(=O)Nc2cc(-c3ccccc3)cc(-c3ccccc3)n2)cc1C', 'pIC50', '5.00 to 6.30'),
  ('CCOc1cc(C)c(C(=O)CCC(=O)Nc2cc(-c3ccccc3)c3cc(Cl)ccc3n2)cc1OCC', 'pIC50', '6.30 to 7.30'),
  ('CCOc1ccc(C(=O)CCC(=O)Nc2cc(-c3ccccc3Cl)nn2-c2ccc(C)cc2)cc1OCC', 'pIC50', '5.00 to 6.30');

Please report the recorded pIC50 for CCOc1ccc(C(=O)CCC(=O)Nc2cc(-c3ccc(/C=C/C(=O)OC)cc3)cc(-c3ccccc3)n2)cc1OCC .
5.00 to 6.30

Please report the recorded pIC50 for CCOc1ccc(C(=O)CCC(=O)Nc2cc(-c3cccc(O)c3)cc(-c3ccccc3)n2)cc1OCC .
7.30 to 8.00

Please report the recorded pIC50 for O=C(CCC(=O)c1ccc2c(c1)CCO2)Nc1cc(-c2ccccc2O)cc(-c2ccccc2)n1 .
7.30 to 8.00

Please report the recorded pIC50 for CCOc1ccc(C(=O)CCC(=O)Nc2cc(-c3ccc(CO)cc3)cc(-c3ccccc3)n2)cc1OCC .
7.30 to 8.00

Please report the recorded pIC50 for CCOc1ccc(C(=O)CCC(=O)Nc2sc(-c3ccccc3)nc2-c2ccccc2)cc1 .
5.00 to 6.30

Please report the recorded pIC50 for CCOc1ccc(C(=O)CCC(=O)Nc2cc(-c3ccc4[nH]ccc4c3)cc(-c3ccccc3)n2)cc1OCC .
≥ 8.00

---

Measured On: Human DGAT1 (Homo sapiens)
Construct: my translation of the primer: M-G-DYKDDDD-GDRGSSRRR) (N); made in house; host or cells: Sf9 insect cells (recombinant baculovirus BAC-DGAT1, pFASTBAC1); microsome fraction
Test Details: DGAT inhibitory activity: [14C]-triglyceride synthesis by DGAT1 high expression Sf9 microsome
Type: biochemical
Test Conditions: Table 2, 25 μM dioleoylglycerol, 25 μM [14C]-Oleoyl-CoA, 32° C., 15 min, read-out: DGAT inhibitory activity (according to IC50)
pIC50: −log10 of the molar value.
Measured Attribute: pIC50

Please report the recorded pIC50 for CCOc1ccc(C(=O)CCC(=O)Nc2cc(-c3ccccc3)c3ccc(/C=C/C#N)cc3n2)cc1OCC .
7.30 to 8.00

Please report the recorded pIC50 for CCOc1ccc(C(=O)CCC(=O)Nc2cn(Cc3ccccc3)nc2-c2ccccc2)cc1 .
5.00 to 6.30

---

Measured On: Human DGAT1 (Homo sapiens, UniProt O75907)
Construct: my translation of the primer: M-G-DYKDDDD-GDRGSSRRR) (N); made in house; host or cells: Sf9 insect cells (recombinant baculovirus BAC-DGAT1, pFASTBAC1); microsome fraction
Test Details: DGAT inhibitory activity: [14C]-triglyceride synthesis by DGAT1 high expression Sf9 microsome
Assay type: biochemical
Test Conditions: Table 1, 25 μM dioleoylglycerol, 25 μM [14C]-Oleoyl-CoA, 32° C., 15 min, read-out: DGAT inhibitory activity (according to IC50)
Protocol: The primer base sequence is shown below. The PCR reaction was conducted using a KOD-plus kit (TOYOBO). […] As a DGAT1 reaction buffer, a solution having a composition of 100 mM Tris-HCl (pH 7.5), 250 mM sucrose, 150 mM MgCl2, 0.01% bovine serum albumin (BSA) was used. […] The inhibitory rate was calculated by the following formula: […]
pIC50: −log10 of the molar value.
Recorded pIC50 by entry

INSERT INTO measurements (smiles_input, result) VALUES
  ('CCOc1ccc(C(=O)CCC(=O)Nc2cnn(Cc3ccccc3)c2-c2ccccc2)cc1OCC', '5.00 to 6.30');

Notebook entry, Human DGAT1 (Homo sapiens, UniProt O75907) assay: pIC50 of O=C(O)Cc1ccc(C(=O)CCC(=O)Nc2nc(-c3ccccc3)c(Cc3ccccc3)s2)cc1 = ?
5.00 to 6.30

Notebook entry, Human DGAT1 (Homo sapiens, UniProt O75907) assay: pIC50 of CCOc1ccc(C(=O)CCC(=O)Nc2nc(-c3ccccc3)c(Cc3ccccc3)s2)cc1OCC = ?
≥ 8.00

Notebook entry, Human DGAT1 (Homo sapiens, UniProt O75907) assay: pIC50 of CCOC(=O)COc1ccc(C(=O)CCC(=O)Nc2nc(-c3ccccc3)c(Cc3ccccc3)s2)cc1 = ?
6.30 to 7.30

---

Measured On: Human DGAT1 (Homo sapiens, UniProt O75907)
Construct: my translation of the primer: M-G-DYKDDDD-GDRGSSRRR) (N); made in house; host or cells: Sf9 insect cells (recombinant baculovirus BAC-DGAT1, pFASTBAC1); microsome fraction
Sequence (O75907 1-488): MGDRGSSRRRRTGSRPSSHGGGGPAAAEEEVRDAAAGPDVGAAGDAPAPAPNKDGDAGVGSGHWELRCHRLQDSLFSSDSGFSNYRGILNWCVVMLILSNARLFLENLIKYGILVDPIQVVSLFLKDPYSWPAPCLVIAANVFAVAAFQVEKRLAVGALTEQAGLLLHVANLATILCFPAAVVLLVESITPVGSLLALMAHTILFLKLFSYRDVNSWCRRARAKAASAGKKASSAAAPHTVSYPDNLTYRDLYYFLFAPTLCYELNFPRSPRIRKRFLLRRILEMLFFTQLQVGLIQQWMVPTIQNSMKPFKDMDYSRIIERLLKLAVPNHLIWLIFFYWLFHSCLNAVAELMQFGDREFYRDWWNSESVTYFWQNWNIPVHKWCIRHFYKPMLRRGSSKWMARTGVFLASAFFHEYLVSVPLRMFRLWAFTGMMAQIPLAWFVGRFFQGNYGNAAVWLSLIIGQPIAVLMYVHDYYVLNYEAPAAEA
Test Details: DGAT inhibitory activity: [14C]-triglyceride synthesis by DGAT1 high expression Sf9 microsome
Assay type: biochemical
Test Conditions: Table 1, 25 μM dioleoylglycerol, 25 μM [14C]-Oleoyl-CoA, 32° C., 15 min, read-out: DGAT inhibitory activity (according to IC50)
Recorded IC50 by entry

Guide cases for IC50, answers given:
INSERT INTO measurements (compound, result) VALUES
  ('COc1ccc(C(=O)CCC(=O)Nc2cc(-c3ccccc3)c(Cc3ccccc3)s2)cc1OC', '10 to 50 nM'),
  ('CCOc1ccc(C(=O)NCCNC(=O)c2cc(-c3ccccc3)n(-c3ccc(OC)cc3)c2C)cc1', '50 to 500 nM'),
  ('O=C(CCC(=O)c1ccccc1)Nc1nc(-c2ccccc2)c(Cc2ccccc2)s1', '50 to 500 nM'),
  ('O=C(CCC(=O)c1ccc(OC(F)(F)F)cc1)Nc1nc(-c2ccccc2)c(Cc2ccccc2)s1', '50 to 500 nM'),
  ('CCOc1ccc(C(=O)CCC(=O)Nc2cc(OCCC(C)C)cc(-c3ccccc3)n2)cc1OCC', '50 to 500 nM'),
  ('CCOc1ccc(C(=O)CCC(=O)Nc2cc(-c3ccccc3)c(C(=O)OC(C)(C)C)s2)cc1OCC', '50 to 500 nM'),
  ('O=C(CCC(=O)c1ccc2c(c1)CCCC2)Nc1nc(-c2ccccc2)c(Cc2ccccc2)s1', '≤ 10 nM'),
  ('CCOc1ccc(C(=O)NCCNC(=O)c2cc(-c3ccccc3)n(-c3ccc(SC)cc3)c2C)cc1', '10 to 50 nM'),
  ('CCOc1cccc(C(=O)CCC(=O)Nc2cc(-c3ccccc3)c(Cc3ccccc3)s2)c1', '50 to 500 nM'),
  ('O=C(CCC(=O)c1ccc2c(c1)CCO2)Nc1nc(-c2ccccc2)c(Cc2ccccc2)s1', '≤ 10 nM');

Please report the recorded IC50 for COc1cc2c(cc1OC)C(=O)[C@H](CC(=O)Nc1nc(-c3ccccc3)c(Cc3ccccc3)s1)C2 (stereo in doubt) .
10 to 50 nM

Please report the recorded IC50 for CCOc1ccc(C(=O)NCCNC(=O)c2cc(-c3ccccc3)n(-c3ccc(OC(F)(F)F)cc3)c2C)cc1 .
50 to 500 nM

Please report the recorded IC50 for CCOc1cc(NC(=O)CCC(=O)c2ccc(OCC)c(OCC)c2)nc(-c2ccccc2)c1 .
50 to 500 nM
